# assay_system: cloned human dopamine D3 receptors (Homo sapiens, UniProt P35462)
# Construct: expressed in transfected cells; membrane homogenate
# Sequence (P35462 whole entry): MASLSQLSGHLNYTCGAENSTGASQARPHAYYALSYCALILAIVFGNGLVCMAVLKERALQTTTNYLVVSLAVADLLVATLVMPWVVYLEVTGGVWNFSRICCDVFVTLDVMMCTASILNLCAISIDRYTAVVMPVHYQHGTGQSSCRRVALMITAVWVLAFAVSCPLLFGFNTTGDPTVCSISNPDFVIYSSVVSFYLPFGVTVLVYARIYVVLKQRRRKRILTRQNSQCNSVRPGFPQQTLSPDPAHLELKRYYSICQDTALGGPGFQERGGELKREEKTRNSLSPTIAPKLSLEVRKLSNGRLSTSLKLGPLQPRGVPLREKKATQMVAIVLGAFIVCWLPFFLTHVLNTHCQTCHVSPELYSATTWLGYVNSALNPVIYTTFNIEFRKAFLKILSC
# experiment_summary: [N-Methyl-3H]Spiroperidol binding to cloned human dopamine D3 receptors (Protocol 1)
# experimental_parameters: Table 2; read-out: D3K1
pKi: −log10 of the molar value.
property: pKi

Answered examples (3):
INSERT INTO results (compound, recorded_result) VALUES
  ('CC(=O)C1CC(CC(=O)NC/C=C/CN2CCN(c3csc4cc(C(F)(F)F)ccc34)CC2)C1(C)C (stereo not shown)', 6.61),
  ('O=C(NC(CO)CCCN1CCN(c2csc3cc(C(F)(F)F)ccc23)CC1)c1ccc2c(c1)S(=O)(=O)c1ccccc1C2=O (stereo not shown)', 6.73),
  ('O=C(NC/C=C\CN1CCN(c2csc3cc(C(F)(F)F)ccc23)CC1)C1(c2ccccc2)CC1', 6.76);

1. O=C(NCC(CO)CCN1CCN(c2csc3cc(C(F)(F)F)ccc23)CC1)c1ccc2ncccc2c1 (stereo not shown) [818938ES]
2. O=C(N[C@H](CO)CCCN1CCN(c2csc3cc(C(F)(F)F)ccc23)CC1)c1ccco1
3. O=C(NCC(CO)CCN1CCN(c2csc3cc(C(F)(F)F)ccc23)CC1)c1ccco1 (stereo not shown) [818924ES]
4. COc1ccc(C(=O)NC/C=C\CN2CCN(c3csc4cc(C(F)(F)F)ccc34)CC2)cc1
Request: Falling order of pKi, please. State the ranking by listing the labels in the requested order.
Response: 4, 1, 3, 2
(4: 7.43, 1: 6.85, 3: 6.50, 2: 6.06)

====

# assay_system: cloned human dopamine D3 receptors (Homo sapiens)
# Construct: expressed in transfected cells; membrane homogenate
# experiment_summary: [N-Methyl-3H]Spiroperidol binding to cloned human dopamine D3 receptors (Protocol 1)
# experimental_parameters: the 14th table; read-out: D3 Ki
pKi: −log10 of the molar value.
property: pKi

INSERT INTO results (smiles_representation, recorded_result) VALUES
  ('O=C(NCCCCCN1CCN(c2csc3cc(F)ccc23)CC1)c1n[nH]c2ccccc12', 7.92),
  ('O=C(N[C@H](CO)CCCN1CCN(c2csc3cc(C(F)(F)F)ccc23)CC1)c1cc2ccccc2[nH]1', 6.48),
  ('CSc1ncccc1C(=O)N[C@@H](CO)CCCN1CCN(c2csc3cc(C(F)(F)F)ccc23)CC1', 6.58),
  ('O=C(NCCCCCCN1CCN(c2csc3cc(C(F)(F)F)ccc23)CC1)c1cc2ccccc2s1', 8.49),
  ('O=C(NCCCCCCN1CCN(c2csc3cc(C(F)(F)F)ccc23)CC1)c1ccc2ccccc2c1', 8.55);

A. O=C(NCCCCCN1CCN(c2csc3cc(F)ccc23)CC1)c1cc2ccccc2o1
B. Cc1ccc(C(=O)N[C@@H](CO)CCCN2CCN(c3csc4cc(C(F)(F)F)ccc34)CC2)cc1
Request: Lower value for measured pKi? Options: A , B Lab note: record the label of whichever item you select.
Response: B

====

# assay_system: cloned human dopamine D3 receptors (Homo sapiens, UniProt P35462)
# Construct: expressed in transfected cells; membrane homogenate
# experiment_summary: [N-Methyl-3H]Spiroperidol binding to cloned human dopamine D3 receptors (Protocol 1)
# experimental_parameters: the 16th table; read-out: D3 Ki
pKi: −log10 of the molar value.
property: pKi

INSERT INTO measurements (compound, assay_system, property, recorded_result) VALUES
  ('O=C(NCCCN1CCCN(c2csc3cc(F)ccc23)CC1)c1cccc(F)c1 [compound 827142]', 'cloned human dopamine D3 receptors (Homo sapiens, UniProt P35462)', 'pKi', 7.00);

1. O=C(NCCCN1CCCN(c2csc3cc(F)ccc23)CC1)c1cc2ccccc2s1 [compound 827143]
2. COc1cccc2oc(C(=O)NCCCCN3CCCN(c4csc5cc(F)ccc45)CC3)cc12 [compound 827128]
Request: Between the entries labelled 1 and 2 , which has a larger pKi value on record? Give the label of your selection.
Response: 2
(2: 7.72, 1: 6.91)

====

# assay_system: cloned human dopamine D3 receptors (Homo sapiens)
# Construct: expressed in transfected cells; membrane homogenate
# experiment_summary: [N-Methyl-3H]Spiroperidol binding to cloned human dopamine D3 receptors (Protocol 1)
# experimental_parameters: Table 2; read-out: D3K1
pKi: −log10 of the molar value.
property: pKi

# count of solved cases: 5
INSERT INTO assay_data (molecule, property, recorded_result) VALUES
  ('CCn1cc(C(=O)N[C@@H](CO)CCCN2CCN(c3csc4cc(C(F)(F)F)ccc34)CC2)c(=O)c2ccc(C)nc21', 'pKi', 6.71),
  ('O=C(NCCCN1CCCN(c2csc3cc(F)ccc23)CC1)c1cccs1', 'pKi', 7.21),
  ('O=C(NCCCCCN1CCN(c2csc3cc(C(F)(F)F)ccc23)CC1)c1cc2ccccc2o1', 'pKi', 7.77),
  ('O=C(NCCCCN1CCN(c2c(-c3ccccc3)sc3cc(F)ccc23)CC1)c1cccs1', 'pKi', 6.53),
  ('O=C(NC(CO)CCCN1CCN(c2csc3cc(C(F)(F)F)ccc23)CC1)c1ccccc1C(F)(F)F (stereo not drawn)', 'pKi', 6.72);

P. Nc1ccc(O)cc1C(=O)NCCCCN1CCCN(c2csc3cc(F)ccc23)CC1
Q. Cc1ccc(C(=O)NCC(CO)CCN2CCN(c3csc4cc(C(F)(F)F)ccc34)CC2)cc1 (stereo not drawn) [818921ES]
R. O=C(NCC(CO)CCN1CCN(c2csc3cc(C(F)(F)F)ccc23)CC1)c1ccsc1 (stereo not drawn) [818927ES]
Request: Hey, can you sort those molecules up there by pKi, smallest first? Provide the labels, sequenced as the question asks.
Response: Q, R, P
(Q: 6.48, R: 6.79, P: 8.19)

====

# assay_system: cloned human dopamine D3 receptors (Homo sapiens, UniProt P35462)
# Construct: expressed in transfected cells; membrane homogenate
# experiment_summary: [N-Methyl-3H]Spiroperidol binding to cloned human dopamine D3 receptors (Protocol 1)
# experimental_parameters: the 14th table; read-out: D3 Ki
pKi: −log10 of the molar value.
property: pKi

INSERT INTO assay_data (compound, recorded_result) VALUES
  ('COc1ccc(C(=O)NC(CO)CCCN2CCN(c3csc4cc(C(F)(F)F)ccc34)CC2)cc1OC (stereo not drawn) [compound 815689]', 6.65);

A. O=C(NCCCCCN1CCN(c2csc3cc(F)ccc23)CC1)c1cc2ccccc2s1 [compound 826783]
B. O=C(NCCCCCN1CCN(c2csc3cc(C(F)(F)F)ccc23)CC1)c1cc2ccccc2s1 [compound 826773]
Request: Compare A and B and name the one whose reported pKi is smaller. Refer to your chosen entry by its label in the reply.
Response: B
(B: 7.96, A: 8.57)

====

# assay_system: cloned human dopamine D3 receptors (Homo sapiens)
# Construct: expressed in transfected cells; membrane homogenate
# experiment_summary: [N-Methyl-3H]Spiroperidol binding to cloned human dopamine D3 receptors (Protocol 1)
# experimental_parameters: the 13th table, unit inferred; read-out: D3Ki
pKi: −log10 of the molar value.
property: pKi

Example results:
INSERT INTO results (compound, assay_system, recorded_result) VALUES
  ('Cc1nn(C)c2sc(C(=O)NCCCCCN3CCCN(c4csc5cc(F)ccc45)CC3)cc12', 'cloned human dopamine D3 receptors (Homo sapiens)', 7.99),
  ('Cn1c(C(=O)NCCCCN2CCCN(c3csc4cc(F)ccc34)CC2)cc2ccccc21 [S977821]', 'cloned human dopamine D3 receptors (Homo sapiens)', 8.78),
  ('O=C(NCCCCN1CCC(c2noc3ccsc23)CC1)c1cc2ccccc2s1', 'cloned human dopamine D3 receptors (Homo sapiens)', 6.43);

a. O=C(NCCCCN1CCCN(c2csc3cc(C(F)(F)F)ccc23)CC1)c1cccs1
b. O=C(NCCCCN1CCCN(c2csc3cc(F)ccc23)CC1)c1cc(Cl)cc(Cl)c1
Request: Please state the entry with greater pKi among a and b . Your choice should be expressed through its label.
Response: b

====

# assay_system: cloned human dopamine D3 receptors (Homo sapiens, UniProt P35462)
# Construct: expressed in transfected cells; membrane homogenate
# experiment_summary: [N-Methyl-3H]Spiroperidol binding to cloned human dopamine D3 receptors (Protocol 1)
# experimental_parameters: read-out: D3K1
property: Ki (nM)

Worked cases, answers included:
INSERT INTO assay_data (molecule, assay_system, property, readout_units, recorded_result) VALUES
  ('O=C(NCCCCCCN1CCN(c2csc3cc(C(F)(F)F)ccc23)CC1)c1cc2ccccc2[nH]1', 'cloned human dopamine D3 receptors (Homo sapiens, UniProt P35462)', 'Ki', 'nM', 3.7),
  ('O=C(NCCCCN1CCN(c2c(Cl)sc3cc(C(F)(F)F)ccc23)CC1)c1ccccc1Br', 'cloned human dopamine D3 receptors (Homo sapiens, UniProt P35462)', 'Ki', 'nM', 117),
  ('O=C(NCCCCCCN1CCN(c2csc3cc(C(F)(F)F)ccc23)CC1)c1ccc2cc[nH]c2c1', 'cloned human dopamine D3 receptors (Homo sapiens, UniProt P35462)', 'Ki', 'nM', 1.7);

P. O=C(NCCCCN1CCN(c2c(Cl)sc3cc(F)ccc23)CC1)c1ccco1
Q. O=C(NCCCCCN1CCN(c2csc3cc(C(F)(F)F)ccc23)CC1)c1cccs1
Request: // pick min by Ki: P , Q Your choice should be expressed through its label.
Response: P
(P: 4.9 nM, Q: 7.8 nM)

1. O=C(NCCCCN1CCN(c2csc3cc(C(F)(F)F)ccc23)CC1)c1ccc(Cl)cc1
2. O=C(NCCCCCCN1CCN(c2csc3cc(C(F)(F)F)ccc23)CC1)c1n[nH]c2ccccc12
Request: Pick one: 1 or 2 . Which one has the lower reported Ki? Answer with the label corresponding to your selection.
Response: 1

1. CCOc1ccc(C(=O)NCCCCN2CCN(c3c(Cl)sc4cc(C(F)(F)F)ccc34)CC2)cc1
2. CC1(C)C(CNC(=O)C2CC2c2ccccc2)C1CN1CCN(c2csc3cc(C(F)(F)F)ccc23)CC1 (mixture of isomers)
3. O=C(NC/C=C\CN1CCN(c2csc3cc(C(F)(F)F)ccc23)CC1)c1cccc(C(F)(F)F)c1
Request: # rank by Ki, ascending (min first) Show the ranking through the labels, in the order asked for.
Response: 2, 1, 3

I. O=C(NC/C=C/CN1CCN(c2csc3cc(C(F)(F)F)ccc23)CC1)c1ccsc1
II. COc1ccc(C(=O)N[C@H](CO)CCCN2CCN(c3csc4cc(C(F)(F)F)ccc34)CC2)cc1
III. O=C(NCCCCN1CCN(c2csc3cc(C(F)(F)F)ccc23)CC1)c1ccc(Br)cc1
IV. COc1ccc(C(=O)NCCCCN2CCN(c3csc4cc(C(F)(F)F)ccc34)CC2)cc1OC
Request: Sort ascending by Ki. A complete answer lists every label in the requested sequence.
Response: III, IV, I, II
(III: 4.3 nM, IV: 6.9 nM, I: 31 nM, II: 191 nM)
